Data provenance: patent US9980965B2

# TEST TARGET: Human PKC betaI (Homo sapiens, UniProt P05771)
# Sequence (P05771 whole entry): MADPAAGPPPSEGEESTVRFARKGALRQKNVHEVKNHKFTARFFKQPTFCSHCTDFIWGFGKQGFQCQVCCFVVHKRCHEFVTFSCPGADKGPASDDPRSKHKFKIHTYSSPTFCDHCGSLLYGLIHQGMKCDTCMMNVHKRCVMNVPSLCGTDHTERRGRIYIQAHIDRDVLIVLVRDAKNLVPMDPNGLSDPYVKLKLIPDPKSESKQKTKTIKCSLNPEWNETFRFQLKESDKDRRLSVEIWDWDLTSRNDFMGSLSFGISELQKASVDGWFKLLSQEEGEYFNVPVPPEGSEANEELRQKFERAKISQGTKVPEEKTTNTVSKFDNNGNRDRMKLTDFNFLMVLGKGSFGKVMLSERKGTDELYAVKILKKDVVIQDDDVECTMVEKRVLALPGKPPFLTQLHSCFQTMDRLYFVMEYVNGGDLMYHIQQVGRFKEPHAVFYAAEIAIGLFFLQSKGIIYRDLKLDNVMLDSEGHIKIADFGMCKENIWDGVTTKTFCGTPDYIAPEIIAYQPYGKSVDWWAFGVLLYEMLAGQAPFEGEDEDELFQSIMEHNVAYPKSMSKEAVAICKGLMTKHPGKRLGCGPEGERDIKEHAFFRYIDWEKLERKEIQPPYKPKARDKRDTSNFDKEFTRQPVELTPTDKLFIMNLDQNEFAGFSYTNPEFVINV
QUANTITY: IC50
Just the number plus its unit, please.

For the compound `Cc1ncc(F)c(Nc2n[nH]c3c2CN(C(=O)N2C[C@@H](C)N(CC4CCOCC4)C[C@@H]2C)C3(C)C)n1` , what IC50 is on record?
8.1 nM

---

# TEST TARGET: Human PKC iota (Homo sapiens)
# Sequence (P41743 whole entry): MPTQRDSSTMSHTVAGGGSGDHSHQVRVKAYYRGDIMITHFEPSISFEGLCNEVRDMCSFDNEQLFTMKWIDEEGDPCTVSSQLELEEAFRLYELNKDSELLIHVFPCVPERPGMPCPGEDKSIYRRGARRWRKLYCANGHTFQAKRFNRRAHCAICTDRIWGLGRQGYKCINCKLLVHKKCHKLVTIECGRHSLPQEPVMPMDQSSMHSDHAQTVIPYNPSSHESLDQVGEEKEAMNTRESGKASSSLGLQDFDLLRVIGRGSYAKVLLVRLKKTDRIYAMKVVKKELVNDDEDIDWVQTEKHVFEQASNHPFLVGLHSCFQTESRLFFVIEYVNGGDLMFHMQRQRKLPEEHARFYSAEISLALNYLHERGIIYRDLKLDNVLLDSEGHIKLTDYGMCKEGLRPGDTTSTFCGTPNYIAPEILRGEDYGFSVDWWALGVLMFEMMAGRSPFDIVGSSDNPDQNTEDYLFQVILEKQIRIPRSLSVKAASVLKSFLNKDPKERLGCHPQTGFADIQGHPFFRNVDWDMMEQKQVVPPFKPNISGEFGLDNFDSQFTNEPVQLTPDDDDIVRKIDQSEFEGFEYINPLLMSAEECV
QUANTITY: IC50

For the molecule `Cc1ncc(F)c(Nc2n[nH]c3c2CN(C(=O)N2C[C@@H](C)N(CC4CCOCC4)C[C@@H]2C)C3(C)C)n1` , what IC50 is on record?
> 1000 nM

---

# TEST TARGET: Human PKC betaII (Homo sapiens)
# Sequence (P05771 1-673 isoform P05771-2): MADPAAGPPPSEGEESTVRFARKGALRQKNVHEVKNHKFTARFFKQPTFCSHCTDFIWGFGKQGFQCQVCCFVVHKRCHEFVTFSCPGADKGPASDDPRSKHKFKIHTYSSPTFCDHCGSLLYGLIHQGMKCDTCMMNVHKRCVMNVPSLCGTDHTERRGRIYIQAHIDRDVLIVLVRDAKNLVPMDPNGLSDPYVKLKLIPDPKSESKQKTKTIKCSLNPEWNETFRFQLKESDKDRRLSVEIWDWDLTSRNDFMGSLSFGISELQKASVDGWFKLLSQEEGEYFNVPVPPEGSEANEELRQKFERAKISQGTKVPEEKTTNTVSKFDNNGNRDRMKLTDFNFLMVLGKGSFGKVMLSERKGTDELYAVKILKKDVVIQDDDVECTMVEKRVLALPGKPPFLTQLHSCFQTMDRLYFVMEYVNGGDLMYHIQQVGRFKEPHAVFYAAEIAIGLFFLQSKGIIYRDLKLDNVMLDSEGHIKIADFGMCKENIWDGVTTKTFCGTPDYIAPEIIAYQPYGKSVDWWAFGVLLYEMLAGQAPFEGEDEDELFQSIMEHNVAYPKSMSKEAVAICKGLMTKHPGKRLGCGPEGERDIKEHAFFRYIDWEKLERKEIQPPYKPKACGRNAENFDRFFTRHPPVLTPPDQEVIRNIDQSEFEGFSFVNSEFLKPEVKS
# ASSAY PROTOCOL: In vitro PKC inhibition, PKC betaII
# APPLIED CONDITIONS: recombinant PKC beta (betaII in Table 1)
QUANTITY: pKi
// pKi is dimensionless: -log10 of concentration (M)

Give pKi (Human PKC betaII (Homo sapiens)) of the following compound: `Cc1ncc(F)c(Nc2n[nH]c3c2CN(C(=O)N2C[C@@H](C)N(CC4CCOCC4)C[C@@H]2C)C3(C)C)n1`
8.28

---

QUANTITY: IC50 (nM)
Just the number in nM, nothing appended.

Give IC50 (Human PKC betaII (Homo sapiens, UniProt P05771)) of the following molecule: `Cc1ncc(F)c(Nc2n[nH]c3c2CN(C(=O)N2C[C@@H](C)N(CC4CCOCC4)C[C@@H]2C)C3(C)C)n1`
7.6

---

# TEST TARGET: Human PKC gamma (Homo sapiens, UniProt P05129)
QUANTITY: IC50 (nM)
Just the number in nM, nothing appended.

For the compound `Cc1ncc(F)c(Nc2n[nH]c3c2CN(C(=O)N2C[C@@H](C)N(CC4CCOCC4)C[C@@H]2C)C3(C)C)n1` , what IC50 is on record?
57.5
